- protocol: in vitro
- measurement.conditions: rat, liver microsomes
Entries and their remaining at 10 min, 0.5 µM

| substance.smiles | remaining at 10 min, 0.5 µM |
| --- | --- |
| [2H]C([2H])([2H])NC(=O)c1nnc(Nc2ccc(C(C)(C)O)cn2)cc1Nc1nccc(-c2ncc(F)cn2)c1OC | 100% |
| [2H]C([2H])([2H])NC(=O)c1nnc(NC(=O)C2CC2)cc1Nc1nccc(-c2ncc(F)cn2)c1OC | 100% |
| [2H]C([2H])([2H])NC(=O)c1nnc(Nc2cccc(OC)n2)cc1Nc1nccc(-c2ncn(C)n2)c1OC | 71% |

* * *

- protocol: in vitro
- measurement.conditions: human, Caco-2

| substance.smiles | measurement.unit | Papp A→B |
| --- | --- | --- |
| [2H]C([2H])([2H])NC(=O)c1nnc(Nc2ccc(C(C)(C)O)cn2)cc1Nc1nccc(-c2ncc(F)cn2)c1OC | ×10⁻⁶ cm/s | 9.7 |
| [2H]C([2H])([2H])NC(=O)c1nnc(NC(=O)C2CC2)cc1Nc1nccc(-c2ncc(F)cn2)c1OC | ×10⁻⁶ cm/s | 34.5 |

* * *

- protocol: in vivo
- measurement.conditions: mouse, po, 10 mg/kg

| substance.smiles | measurement.unit | Cmax |
| --- | --- | --- |
| [2H]C([2H])([2H])NC(=O)c1nnc(Nc2ccc(C(C)(C)O)cn2)cc1Nc1nccc(-c2ncc(F)cn2)c1OC | µM | 15.2 |

* * *

- protocol: in vivo
- measurement.conditions: mouse, po, 10 mg/kg

| substance.smiles | AUC(0-t) (µM·h) |
| --- | --- |
| [2H]C([2H])([2H])NC(=O)c1nnc(Nc2ccc(C(C)(C)O)cn2)cc1Nc1nccc(-c2ncc(F)cn2)c1OC | 34.2 |

* * *

- protocol: in vitro
- measurement.conditions: mouse, liver microsomes

| substance.smiles | remaining at 10 min, 0.5 µM |
| --- | --- |
| [2H]C([2H])([2H])NC(=O)c1nnc(NC(=O)C2CC2)cc1Nc1nccc(-c2ncc(F)cn2)c1OC | 100% |
| [2H]C([2H])([2H])NC(=O)c1nnc(Nc2ccc(C(C)(C)O)cn2)cc1Nc1nccc(-c2ncc(F)cn2)c1OC | 83% |
| [2H]C([2H])([2H])NC(=O)c1nnc(Nc2cccc(OC)n2)cc1Nc1nccc(-c2ncn(C)n2)c1OC | 65% |
